The values you see were collected from ChEMBL document CHEMBL4619723.

Reported Kd for target or system Cyclin-dependent kinase 8 (Homo sapiens, UniProt P49336), by entry.
Reply with just the number (in nM).

Asked: Print Cyclin-dependent kinase 8 (Homo sapiens, UniProt P49336) Kd for CN(C)[C@@H]1CC[C@@]2(C)[C@@H](CC[C@@H]3[C@@H]2CC[C@]2(C)C(c4ccc5ccncc5c4)=CC[C@@H]32)C1 .
Given back: 18

Field: next compound
Asked: Print Cyclin-dependent kinase 8 (Homo sapiens, UniProt P49336) Kd for CN(C)[C@@H]1CC[C@@]2(C)[C@@H](CC[C@@H]3[C@@H]2CC[C@]2(C)C(c4cccc5cnccc45)=CC[C@@H]32)C1 .
Given back: 3.5

* * *

Tested on: MV4-11
Assay: cells
Conditions: Homo sapiens, MV4-11, 48 h
Description: Cytotoxicity against human MV4-11 cells assessed as reduction in cell viability after 48 hrs by Hoechst 33342 staining-based microscopy and WST-1 assay
assayMetric: pEC50
# pEC50 is unitless: minus log10 of the molar concentration; print number only

Some solved entries appear below for comparison.
Asked: Respond only with pEC50 recorded for CN(C)[C@@H]1CC[C@@]2(C)[C@@H](CC[C@@H]3[C@@H]2CC[C@]2(C)C(c4cccnc4)=CC[C@@H]32)C1
Given back: 5.00

Asked: Respond only with pEC50 recorded for CN(C)[C@@H]1CC[C@@]2(C)[C@@H](CC[C@@H]3[C@@H]2CC[C@]2(C)C(c4cncc(Cl)c4)=CC[C@@H]32)C1
Given back: 5.07

Asked: Respond only with pEC50 recorded for CN(C)[C@@H]1CC[C@@]2(C)[C@@H](CC[C@@H]3[C@@H]2CC[C@]2(C)C(c4cccc5cnccc45)=CC[C@@H]32)C1
Given back: 5.27

Further cases:
Asked: Respond only with pEC50 recorded for CN(C)[C@@H]1CC[C@@]2(C)[C@@H](CC[C@@H]3[C@@H]2CC[C@]2(C)C(c4ccc5cnccc5c4)=CC[C@@H]32)C1
Given back: 5.39

Asked: Respond only with pEC50 recorded for CN(C)[C@@H]1CC[C@@]2(C)[C@@H](CC[C@@H]3[C@@H]2CC[C@]2(C)C(c4ccc5ccncc5c4)=CC[C@@H]32)C1
Given back: 5.26

* * *

Assay: Selectivity ratio of EC50 for rat NRK cells to EC50 for human MOLM13 cells
Format: toxicity
Conditions: NRK cells versus MOLM13 cells, read-out: Ratio EC50
assayMetric: selectivity ratio

Asked: Respond only with selectivity ratio recorded for CN(C)[C@@H]1CC[C@@]2(C)[C@@H](CC[C@@H]3[C@@H]2CC[C@]2(C)C(c4cccc5cnccc45)=CC[C@@H]32)C1
Given back: 3 to 4

* * *

Assay: Selectivity ratio of EC50 for rat H9c2 cells to EC50 for human MV4-11 cells
Format: toxicity
Details: H9c2 cells versus MV4-11 cells, read-out: Ratio EC50
assayMetric: selectivity ratio

Asked: Respond only with selectivity ratio recorded for CN(C)[C@@H]1CC[C@@]2(C)[C@@H](CC[C@@H]3[C@@H]2CC[C@]2(C)C(c4cccc5cnccc45)=CC[C@@H]32)C1
Given back: 3 to 4

* * *

Assay: Selectivity ratio of EC50 for rat NRK cells to EC50 for human MV4-11 cells
Assay type: toxicity
Details: NRK cells versus MV4-11 cells, read-out: Ratio EC50
assayMetric: selectivity ratio

Asked: Respond only with selectivity ratio recorded for CN(C)[C@@H]1CC[C@@]2(C)[C@@H](CC[C@@H]3[C@@H]2CC[C@]2(C)C(c4cccc5cnccc45)=CC[C@@H]32)C1
Given back: 3 to 4
